Here the recorded melting point is given for each entry.

For orientation, consider the following solved cases.
{"columns": ["molecule", "melting point"],
 "data": [
  ["CC(C)n1nc(-c2sc(C(N)=O)nc2-c2ccc(F)cc2)ccc1=O", "226.5 to 227.5 °C"],
  ["COCCn1nc(-c2sc(C(=O)NC(C)C)nc2-c2ccccc2)ccc1=O", "172 to 172.5 °C"],
  ["CC(C)NC(=O)c1nc(-c2ccc(F)cc2)c(-c2ccc(=O)n(C(C)C)n2)s1", "122 to 123.5 °C"],
  ["CC(C)n1nc(-c2sc(NC(=O)c3cccc(C(F)(F)F)c3)nc2-c2ccccc2)ccc1=O", "237 to 238 °C"],
  ["CCOCCNCc1ccc(C(=O)Nc2nc(-c3ccccc3)c(-c3ccc(=O)n(C(C)C)n3)s2)cc1", "153 to 154 °C"],
  ["CC(=O)Nc1nc(-c2ccccc2)c(-c2ccc(=O)n(C(C)C)n2)s1", "202 to 204 °C"],
  ["CC(C)n1nc(-c2sc(Nc3cccnc3)nc2-c2ccccc2)ccc1=O", "226 to 228 °C"],
  ["CC(C)n1nc(-c2sc(NC(=O)COc3ccccc3)nc2-c2ccccc2)ccc1=O", "243 to 244 °C"]
]}

get_value(item= CC(C)n1nc(-c2sc(NC(=O)CNCC(O)c3ccccc3)nc2-c2ccccc2)ccc1=O.Cl (stereo not shown) , readout=melting point) returns 218 to 220 °C

get_value(item= CC(C)n1nc(-c2sc(C(=O)NCc3ccccc3)nc2-c2ccccc2)ccc1=O , readout=melting point) returns 186 to 187 °C

Reported melting point of CC(C)n1nc(-c2sc(C(N)=O)nc2-c2cccc(F)c2)ccc1=O : 248 to 250 °C

melting point reported for this molecule CC(C)n1nc(-c2sc(NC(=O)CCN3CCCC3)nc2-c2ccccc2)ccc1=O.Cl : 224 to 225 °C

melting point measured on CCNc1nc(-c2ccccc2)c(-c2ccc(=O)n(C(C)C)n2)s1 = 167 to 169 °C

The reported value for CC(=O)N1CCN(C(=O)c2nc(-c3ccccc3)c(-c3ccc(=O)n(C(C)C)n3)s2)CC1 in terms of melting point is 78 to 82 °C

For reference, reported melting point for CC(C)n1nc(-c2sc(NC(=O)c3cccc4ccccc34)nc2-c2ccccc2)ccc1=O stands at 223 to 224 °C
